kon overview
Biological target: His-tagged canine IL-31 (interleukin 31) recombinant protein (canine)
Assay: BLI (Gator), biotinylated antibody on streptavidin probe, canine IL-31 as analyte
Report the figure in M⁻¹ s⁻¹ without appending any unit label.

Known results for binders:
6465-H1K2-canIgGB (antibody, V domains shown) VH: EVQLVESGGDLVKPGGSLRLSCVASGYSFTNYYLYWVRQAPGKGLEWVGELNPRNGGTNLNAKFKTRFTISVDKAKNMAYLQMNSLRAEDTAVYYCTRGGTTVVVRDVMDFWGQGTLVTVSS VL: DIVLTQTPLSLSVSPGEPASISCRASESVDSYGNSFMHWYRQKPGQSPQLLIYRASNLESGVPDRFSGSGSRTDFTLRISRVEADDAGVYYCQQSNEDPYTFGQGTKLEIKR	135000
6465-H1K3-canIgGB (antibody, V domains shown) VH: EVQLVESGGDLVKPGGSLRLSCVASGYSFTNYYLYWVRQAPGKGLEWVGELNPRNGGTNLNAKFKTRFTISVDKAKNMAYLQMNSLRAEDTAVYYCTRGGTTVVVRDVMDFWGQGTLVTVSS VL: DIVMTQTPLSLSVSPGEPASISCRASESVDSYGNSFMHWYRQKPGQSPQLLIYRASNLESGVPDRFSGSGSGTDFTLRISRVEADDAGVYYCQQSNEDPYTFGQGTKLEIKR	579000
B2-H3K3-canIgGB (antibody, V domains shown) VH: EVQLVESGGDLVKPGGSLRLSCVASGFTFSDAWMDWVRQAPGKGLQWVAEIRSRAESHATYYAESVKGRFTISRDDAKNTVYLQMNSLRAEDTAVYYCTPASTMITTGWFAYWGQGTLVTVSS VL: EIVMTQTPLSLSVSPGELATISCRASQNISVYLHWYQQKPGQAPKVLIKYVSQSISGVPSRFSGSGSGSDFTLTISSVEAEDVGVYYCQNGHSFPYTFGQGTKLEIKR	121000
7475-H3K1-canIgGB (antibody, V domains shown) VH: EVQLVESGGDLVKPGGSLRLSCVASGFTFSSYAMSWVRQAPGKGLQWVARISNGGDYIFYADTVKGRFTISRDNAKNTLYLQMNSLRAEDTAMYYCTRRGHYNTSSYWYFDVWGQGTLVTVSS VL: EIVMTQSPASLSLSQEEKVTITCKASENVGTYVSWYQQKPGQAPKLLIYGASNRYTGVPSRFSGSGSGTDFTFTISSLEPEDVAVYYCGQSYSYPPTFGAGTKVELKR	112000

Read the entry 6465-mHvKv-canIgGB (antibody, V domains shown) VH: EVQLQQSGAELVRPGASVRLSCKASGYSFTNYYLYWVKQRPGQGLEWIGELNPRNGGTNLNAKFKTKATLTVDKSSNTAYMRLSSLTSEDSAVYYCTRGGTTVVVRDVMDFWGQGTSVTVSS VL: DIELTQSPASLAVSLGQRATISCRASESVDSYGNSFMHWYQQKPGQPPKLLIYRASNLESGIPARFSGSGSRTDFTLTINPVEADDVATYYCQQSNEDPYTFGGGTKLEIKR and write its reported kon.
507000

meta.source: patent EP4745156A1
